Target: hLigI (Homo sapiens, UniProt P18858)
Construct: made in house
Sequence (P18858 whole entry): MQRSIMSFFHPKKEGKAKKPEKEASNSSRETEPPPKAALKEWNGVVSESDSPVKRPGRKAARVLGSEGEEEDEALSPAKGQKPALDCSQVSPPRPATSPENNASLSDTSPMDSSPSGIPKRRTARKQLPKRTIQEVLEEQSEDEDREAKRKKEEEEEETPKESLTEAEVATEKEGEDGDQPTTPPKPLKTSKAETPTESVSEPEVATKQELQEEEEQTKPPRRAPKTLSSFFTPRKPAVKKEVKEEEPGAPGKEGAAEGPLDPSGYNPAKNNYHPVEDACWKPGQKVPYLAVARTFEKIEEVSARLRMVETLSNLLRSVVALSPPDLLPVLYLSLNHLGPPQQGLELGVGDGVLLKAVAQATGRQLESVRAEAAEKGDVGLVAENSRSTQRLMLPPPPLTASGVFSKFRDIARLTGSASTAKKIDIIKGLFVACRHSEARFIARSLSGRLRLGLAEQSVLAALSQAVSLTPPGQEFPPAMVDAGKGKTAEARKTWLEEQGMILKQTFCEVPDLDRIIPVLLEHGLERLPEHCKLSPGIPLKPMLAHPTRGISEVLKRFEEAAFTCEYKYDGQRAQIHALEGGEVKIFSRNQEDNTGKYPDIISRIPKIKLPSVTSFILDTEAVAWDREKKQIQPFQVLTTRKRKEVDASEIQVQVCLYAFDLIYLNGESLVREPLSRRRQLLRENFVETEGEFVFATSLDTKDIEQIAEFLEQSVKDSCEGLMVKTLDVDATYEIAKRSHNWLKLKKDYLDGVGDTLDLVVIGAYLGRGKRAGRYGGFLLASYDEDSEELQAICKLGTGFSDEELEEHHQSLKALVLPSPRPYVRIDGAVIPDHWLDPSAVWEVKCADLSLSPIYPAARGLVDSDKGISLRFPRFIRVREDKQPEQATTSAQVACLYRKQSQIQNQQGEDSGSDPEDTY
Test: High-throughput fluorescence-based DNA joining (ligation) assay
Type: biochemical
Settings: 100 uM
OBSERVED_PROPERTY: % activity Inhibition hLigI 100 uM (%)

INSERT INTO results (compound_structure, display_unit, recorded_number) VALUES
  ('O=C(O)Cc1ccccc1S(=O)(=O)c1ccc(Cl)cc1', '%', 28.2),
  ('COC(=O)c1ccc(S(=O)(=O)O)o1', '%', 7.5),
  ('CS(=O)(=O)NNC(=O)C(=O)NNc1ccccc1', '%', 37.7),
  ('NS(=O)(=O)c1ccc(CCNC(=O)CCS(=O)(=O)c2ccc(Br)cc2)cc1', '%', 53.4);
